# target_of_assay: androgen receptor (AR) (Homo sapiens, UniProt P10275, T878A)
# Construct: LNCaP cells were transiently transfected with the PSA (6.1 kb)-luciferase reporter for 24 h; endogenous in cells; host or cells: LNCaP
# Sequence (P10275 whole entry T878A): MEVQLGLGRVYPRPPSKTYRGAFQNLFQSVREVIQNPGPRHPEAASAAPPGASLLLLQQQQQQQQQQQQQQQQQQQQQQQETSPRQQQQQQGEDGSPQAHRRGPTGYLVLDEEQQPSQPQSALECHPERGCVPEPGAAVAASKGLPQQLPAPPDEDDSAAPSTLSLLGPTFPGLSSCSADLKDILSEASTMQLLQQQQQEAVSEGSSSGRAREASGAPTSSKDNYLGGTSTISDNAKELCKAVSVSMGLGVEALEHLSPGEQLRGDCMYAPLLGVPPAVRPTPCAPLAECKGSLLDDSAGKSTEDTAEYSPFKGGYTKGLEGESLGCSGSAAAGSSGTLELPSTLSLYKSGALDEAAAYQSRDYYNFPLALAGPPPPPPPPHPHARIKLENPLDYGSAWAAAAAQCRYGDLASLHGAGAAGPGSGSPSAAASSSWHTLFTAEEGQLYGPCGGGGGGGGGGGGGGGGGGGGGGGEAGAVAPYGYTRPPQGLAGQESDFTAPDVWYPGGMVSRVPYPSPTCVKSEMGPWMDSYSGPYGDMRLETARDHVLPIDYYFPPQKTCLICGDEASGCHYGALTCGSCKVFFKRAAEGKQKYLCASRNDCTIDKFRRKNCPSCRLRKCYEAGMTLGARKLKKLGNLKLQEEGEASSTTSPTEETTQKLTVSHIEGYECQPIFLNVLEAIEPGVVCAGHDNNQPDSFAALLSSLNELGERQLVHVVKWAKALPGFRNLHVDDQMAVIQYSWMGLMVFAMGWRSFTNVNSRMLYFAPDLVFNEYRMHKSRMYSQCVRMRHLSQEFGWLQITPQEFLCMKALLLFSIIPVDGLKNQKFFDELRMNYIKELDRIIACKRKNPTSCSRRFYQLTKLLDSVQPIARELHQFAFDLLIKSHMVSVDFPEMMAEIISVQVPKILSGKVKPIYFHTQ
# experimental_protocol: Androgen-induced PSA (6.1 kb)-luciferase reporter assay in LNCaP cells
# Type: cell-based
# settings: LNCaP cells transfected with PSA (6.1 kb)-luciferase reporter, R1881 1 nM, 24 h; read-out: PSA-Luc IC50
readout_name: IC50 (nM)

molecule: CC(C)(c1ccc(OCc2ocnc2S(C)(=O)=O)cc1)c1cc(Cl)c(OCCCl)c(C#N)c1
target_of_assay: androgen receptor (AR) (Homo sapiens, UniProt P10275, T878A)
numeric_readout: 400
//
molecule: CC(C)(c1ccc(OCc2ccnc(NS(C)(=O)=O)n2)cc1)c1cc(Cl)c(OCCCl)c(Cl)c1
target_of_assay: androgen receptor (AR) (Homo sapiens, UniProt P10275, T878A)
numeric_readout: 658
//
molecule: CC(C)(c1ccc(OC[C@H](O)CNS(C)(=O)=O)cc1)c1cc(Cl)c(OC[C@H](O)CCl)c(Cl)c1 [X, reference compound]
target_of_assay: androgen receptor (AR) (Homo sapiens, UniProt P10275, T878A)
numeric_readout: 1050
//
molecule: CC(C)(c1ccc(OCc2coc(NS(C)(=O)=O)n2)cc1)c1cc(Cl)c(OCCCl)c(Cl)c1
target_of_assay: androgen receptor (AR) (Homo sapiens, UniProt P10275, T878A)
numeric_readout: 631
//
molecule: CC(C)(c1ccc(OCc2ncc(S(C)(=O)=O)s2)cc1)c1cc(Cl)c(OCCCl)c(C#N)c1
target_of_assay: androgen receptor (AR) (Homo sapiens, UniProt P10275, T878A)
numeric_readout: 205
//
molecule: CC(C)(c1ccc(OCc2ocnc2S(C)(=O)=O)cc1)c1cc(Cl)c(OCCCl)c(Cl)c1
target_of_assay: androgen receptor (AR) (Homo sapiens, UniProt P10275, T878A)
numeric_readout: 592
//
molecule: CC(C)(c1ccc(OCc2ccnc(NS(C)(=O)=O)n2)cc1)c1cc(Cl)c(OCCCl)c(C#N)c1
target_of_assay: androgen receptor (AR) (Homo sapiens, UniProt P10275, T878A)
numeric_readout: 535

----------
Listing of entries alongside the reported microsomal CLint at 1 μM.
# experimental_protocol: Microsomal stability assay, human liver microsomes
# Type: in vitro ADME
# settings: pH 7.4, 1 μM compound, 0.5 mg/mL protein, 37° C., read-out: HLM +/− NADPH: Clint (μL/min/mg protein)

molecule: CC(C)(c1ccc(OCc2cnc(S(C)(=O)=O)o2)cc1)c1cc(Cl)c(OCCCl)c(Cl)c1 [Compound A57]
microsomal CLint at 1 μM: 12 to 48 µL/min/mg
--
molecule: CC(C)(c1ccc(NC(=O)c2coc(S(C)(=O)=O)n2)cc1)c1cc(Cl)c(OCCCl)c(C#N)c1 [Compound A96]
microsomal CLint at 1 μM: ≥ 48 µL/min/mg
--
molecule: CC(C)(c1ccc(OCc2ncc(S(C)(=O)=O)o2)cc1)c1cc(Cl)c(OCCCl)c(C#N)c1 [Compound A153]
microsomal CLint at 1 μM: < 12 µL/min/mg
--
molecule: CC(=O)Nc1nccc(C(C)Oc2ccc(C(C)(C)c3cc(Cl)c(OCCCl)c(C#N)c3)cc2)n1 (stereo not shown) [Compound A145]
microsomal CLint at 1 μM: ≥ 48 µL/min/mg
--
molecule: CC(C)(c1ccc(OCc2ccnc(NS(C)(=O)=O)c2)cc1)c1cc(Cl)c(OCCCl)c(C#N)c1 [Compound A195]
microsomal CLint at 1 μM: < 12 µL/min/mg
--
molecule: CC(C)(c1ccc(OCc2ocnc2S(C)(=O)=O)cc1)c1cc(Cl)c(OCC(O)CCl)c(Cl)c1 (stereo not shown) [Compound A117]
microsomal CLint at 1 μM: 12 to 48 µL/min/mg
--
molecule: Cc1oc(S(C)(=O)=O)nc1COc1ccc(C(C)(C)c2cc(Cl)c(OCCCl)c(C#N)c2)cc1 [Compound A80]
microsomal CLint at 1 μM: < 12 µL/min/mg

Values from patent US11059795B2
